These entries and their values trace back to PubChem BioAssay (NCI).

log10(TGI): recorded values
Test system: SK-MEL-2 melanoma
Assay: NCI tumour cell line growth inhibition, 48 h
Could you please treat all values as log10 of TGI in µM?

Consider the reported log10(TGI) for these compounds:
[
  {
    "Compound": "COc1cc(-c2nn(-c3ccc(NC(=O)Nc4ccc(Cl)c(Cl)c4)cc3)cc2-c2ccncc2)ccc1Cl",
    "System": "SK-MEL-2 melanoma",
    "Endpoint Name": "log10(TGI)",
    "Recorded Value": 1.60
  },
  {
    "Compound": "CC(=O)[CH-]C(=O)c1ccccc1.CC(=O)[CH-]C(=O)c1ccccc1.COc1cccc([O-])c1[O-].[Ti+4]",
    "System": "SK-MEL-2 melanoma",
    "Endpoint Name": "log10(TGI)",
    "Recorded Value": 1.80
  },
  {
    "Compound": "Cn1c(NN)nc(-c2ccc([N+](=O)[O-])cc2)c(C#N)c1=O",
    "System": "SK-MEL-2 melanoma",
    "Endpoint Name": "log10(TGI)",
    "Recorded Value": 1.62
  },
  {
    "Compound": "OC(CC(CC(O)(C(F)(F)Cl)C(F)(F)Cl)=NNc1ccccc1)(C(F)(F)Cl)C(F)(F)Cl",
    "System": "SK-MEL-2 melanoma",
    "Endpoint Name": "log10(TGI)",
    "Recorded Value": 0.55
  },
  {
    "Compound": "C=C1C(=O)O[C@H]2[C@H]1CC/C(Cn1cc(CNCCc3c[nH]c4ccc(Cl)cc34)nn1)=C\\CC[C@@]1(C)O[C@@H]21",
    "System": "SK-MEL-2 melanoma",
    "Endpoint Name": "log10(TGI)",
    "Recorded Value": 1.42
  }
]

COC1C(O)C(C)OC(OC2C(Oc3cccc4c(O)c5c(=O)oc6ccc(C)c7c(=O)oc(c34)c5c67)OC(C)C3O[C@H](c4ccccc4)OC32)C1O (some centres not stated) yielded log10(TGI) of 0.78

CN1CCN(CCCOc2cccc3nc(Nc4ccc(Cl)c(F)c4)ccc23)CC1 yielded log10(TGI) of 0.57

----------
TGI: recorded values
System: HCC-2998 colon
Test: NCI tumour cell line growth inhibition, 48 h

Consider the reported TGI for these molecules:
[
  {
    "Molecule": "CC1(C)OCC2(CO1)CSCCCSCC1(COC(C)(C)OC1)CSCCCSC2",
    "System": "HCC-2998 colon",
    "TGI": "> 100 µM"
  },
  {
    "Molecule": "Cc1nc(Cl)c2sc(=S)n(-c3ccc(F)cc3)c2n1",
    "System": "HCC-2998 colon",
    "TGI": "20.3 µM"
  },
  {
    "Molecule": "CC1(C)OC(=O)[C@@](C)([C@H](O)c2ccccc2)O1",
    "System": "HCC-2998 colon",
    "TGI": "> 100 µM"
  },
  {
    "Molecule": "CC1SC(c2ccccc2)N(Nc2c3ccccc3nc3ccccc23)C1=O (stereo not given)",
    "System": "HCC-2998 colon",
    "TGI": "> 100 µM"
  }
]

CC(=O)[CH-]C(=O)c1ccccc1.CC(=O)[CH-]C(=O)c1ccccc1.COc1cccc([O-])c1[O-].[Ti+4] yielded TGI of > 100 µM

Oc1[nH]c2ccccc2c1N=NC(=S)N1CCCCC1 yielded TGI of 8.87 µM

O=C(C/C(=N\NC(=O)C[n+]1ccccc1)C(=O)Nc1nc2ccc([N+](=O)[O-])cc2s1)CC(c1ccccc1)c1c(O)c2ccccc2oc1=O (stereo not given) yielded TGI of > 100 µM

----------
System: ACHN renal
Test: NCI tumour cell line growth inhibition, 48 h
Endpoint Name: GI50

ACHN renal data for COc1cc(N2CCN(C(C)C)CC2)ccc1Nc1nc(Nc2cccc3ncccc23)c2cc[nH]c2n1 ; its GI50: 7.45 µM

ACHN renal data for Oc1c(C(Nc2cccc3ccccc23)c2ccccc2)ccc2cccnc12 (configuration not stated) ; its GI50: 3.55 µM

ACHN renal data for O=[N+]([O-])c1cc([N+](=O)[O-])c(Cl)c(Cl)c1Cl ; its GI50: 1.04 µM

ACHN renal data for CN(CCC#N)c1ccc(/C=C(\C#N)c2cccc(C(F)(F)F)c2)cc1 ; its GI50: 4.13 µM

ACHN renal data for COc1cc2c(c(OC)c1OC)C(=O)CC(c1cccc(NC(=O)c3ccc(Br)cc3)c1)O2 (configuration not stated) ; its GI50: 3.02 µM

ACHN renal data for COc1cccc(C(=O)Nc2ccc(CN3CCc4nc5cc(OC)c(OC)cc5cc43)cc2)c1 ; its GI50: 3.08 µM

ACHN renal data for CN(Cc1cnc(N)nc1N)c1ccc(C(=O)O)cc1 ; its GI50: > 100 µM

ACHN renal data for Cc1onc(-c2c(F)cccc2Cl)c1-c1ncc(-c2ccc(Cl)cc2)o1 ; its GI50: 5.15 µM

ACHN renal data for COc1cc(-c2n/c(=C\c3c(O)[nH]c4ccc(Cl)cc34)cc3c2=Nc2ccccc2-3)cc(OC)c1OC ; its GI50: 0.449 µM

ACHN renal data for O=C(/C=C/c1ccccc1)c1c[nH]c2ccccc2c1=O ; its GI50: 3.01 µM

ACHN renal data for Cc1cc(Cc2cc(C)c(O)c(C)c2)cc(C)c1O ; its GI50: 12.1 µM

ACHN renal data for O=C(/C=C1\C(=O)N(Cc2ccc([N+](=O)[O-])cc2)c2ccccc21)c1ccc(OCCN2CCCCC2)cc1 ; its GI50: 1.16 µM

ACHN renal data for COc1cc(/C=N/Nc2ncnc3c2cnn3C(C)C)ccc1O ; its GI50: 5.95 µM

ACHN renal data for CC1=CC[C@@H]2C(C)(C)C(=O)CC[C@@]2(C)[C@@H]1COc1ccc2ccc(=O)oc2c1 ; its GI50: 15.3 µM

ACHN renal data for CCCCN(CCCC)c1ccc(C(=N)c2ccc(N(C)C)cc2)cc1 ; its GI50: 1.04 µM

ACHN renal data for O=C(/C=C/C12c3ccccc3C(c3ccccc31)C1C(=O)N(c3ccccc3)C(=O)C12)c1ccc(Cl)cc1 (configuration not stated) ; its GI50: 1.39 µM

ACHN renal data for CC(=O)[CH-]C(=O)c1ccccc1.CC(=O)[CH-]C(=O)c1ccccc1.COc1cccc([O-])c1[O-].[Ti+4] ; its GI50: 94.9 µM

----------
System: MDA-MB-231 breast
Assay: NCI tumour cell line growth inhibition, 48 h
Endpoint Name: TGI

Consider the reported TGI for these molecules:
[
  {
    "Molecule": "O=C(/C=C/C12c3ccccc3C(c3ccccc31)C1C(=O)N(c3ccccc3)C(=O)C12)c1ccc(Cl)cc1 (centres undefined)",
    "System": "MDA-MB-231 breast",
    "Recorded Value": "3.9 µM"
  },
  {
    "Molecule": "O=C(Cn1c(=O)c(-c2ccccc2)nc2ccccc21)c1ccc(Cl)cc1",
    "System": "MDA-MB-231 breast",
    "Recorded Value": "> 100 µM"
  },
  {
    "Molecule": "Nc1nc(N)c(C2=CCN(Cc3ccccc3)CC2)c(=O)[nH]1",
    "System": "MDA-MB-231 breast",
    "Recorded Value": "> 100 µM"
  },
  {
    "Molecule": "C/C=C(\\C)c1cc(=O)c2c(C)cc3c(c2o1)C(=O)c1c(O)c(C2CC(C)(N(C)C)C(O)C(C)O2)cc(C2CC(N(C)C)C(O)C(C)O2)c1C3=O (centres undefined)",
    "System": "MDA-MB-231 breast",
    "Recorded Value": "0.764 µM"
  }
]

COC(=O)CCC(C)[C@H]1CCC2C3C(C[C@H](OC(C)=O)[C@@]21C)[C@@]1(C)CCC2(C[C@H]1C[C@H]3OC(C)=O)OOC1(CCC(C)CC1)OO2 (some centres undefined) yielded TGI of > 100 µM

O=c1[nH]c(=O)n(C2CC(O)C(CO)O2)cc1OCCc1ccccc1 (centres undefined) yielded TGI of > 100 µM

CC(C)(N)CO[C@H]1C[C@H]2CC[C@@]1(C)C2(C)C yielded TGI of 36.5 µM

Cc1nc2ccccc2c(=O)n1-c1n[nH]c2ccccc12 yielded TGI of > 100 µM

O=C(c1ccco1)C1CC(c2ccc3ccccc3c2O)=NN1 (centres undefined) yielded TGI of > 100 µM

CN(Cc1cnc(N)nc1N)c1ccc(C(=O)O)cc1 yielded TGI of > 100 µM

----------
System: 786-0 renal
Assay: NCI tumour cell line growth inhibition, 48 h
Endpoint Name: log10 TGI (log10 of the value in µM)
Could you please treat all values as log10 of TGI in µM?

Consider the reported log10 TGI for these compounds:
[
  {
    "Compound": "C=C1C(=O)O[C@H]2[C@H]1CC/C(Cn1cc(CNCCc3c[nH]c4ccc(Cl)cc34)nn1)=C\\CC[C@@]1(C)O[C@@H]21",
    "log10 TGI": 1.01
  },
  {
    "Compound": "O=[N+]([O-])c1cc([N+](=O)[O-])c(Cl)c(Cl)c1Cl",
    "log10 TGI": 0.32
  },
  {
    "Compound": "COc1ccc(-c2nn(-c3ccc(NC(=O)c4ccc(Cl)c(C(F)(F)F)c4)cc3)cc2-c2ccncc2)cc1Cl",
    "log10 TGI": -0.35
  }
]

786-0 renal data for C=C1CC(Cn2ccc(=O)[nH]c2=O)(c2ccc(-c3ccccc3)cc2)OC1=O (stereo unspecified) ; its log10 TGI: 0.22

786-0 renal data for Cc1c(C)c2c(c(C)c1NC(=O)/C=C\C(=O)O)CCC(C)(CCCC(C)CCCC(C)CCCC(C)C)O2 (stereo unspecified) ; its log10 TGI: 0.49
